# System: MDA-MB-231 breast
# methodSummary: NCI-60 one-dose screen, 48 h (100 = growth as untreated, 0 = no growth, -100 = all killed)
# recordedConditions: 10 µM unless noted
This is part of a sample that, as a whole, favours compounds with a hit. Of some 83,000 tested, about 20% had one in any assay.
We use 30% as the dividing line for growth: on or above the line is Condition met, below is Condition not met.

compound | classLabel
COc1ccc(C(=O)/C=C/c2cccc(Br)c2)cc1S(N)(=O)=O | Condition not met
Cc1sc(C(NC(=O)OCCn2c([N+](=O)[O-])cnc2C)C(F)(F)Cl)nc1-c1ccc(OC(F)(F)F)cc1 (stereo not given) | Condition not met
COc1cc(NC(=O)c2cccc(C3CCc4c(cc(OC)c(OC)c4OC)O3)c2)cc(OC)c1OC (stereo not given) | Condition not met
COc1ccc(C(=O)/C=C/c2ccc3ccccc3c2)cc1S(N)(=O)=O | Condition not met
CCCSc1nc(Nc2ccc(S(N)(=O)=O)cc2)c(C#N)c(-c2cc(OC)c(OC)c(OC)c2)n1 | Condition met

* * *

# Tested on: COLO 205 colon
# methodSummary: NCI-60 one-dose screen, 48 h (100 = growth as untreated, 0 = no growth, -100 = all killed)
# recordedConditions: 10 µM unless noted
This is part of a sample that, as a whole, favours compounds with a hit. Of some 83,000 tested, about 20% had one in any assay.
Label class 1 when growth is at or above 60%; anything below gets class 0.

compound | classLabel
O=C(/C=C/c1ccc(-c2ccccc2)cc1)c1nc2ccccc2n1Cc1ccc(Br)cc1 | class 1
COc1ccc(C(=O)/C=C/c2cccc(Cl)c2Cl)cc1S(N)(=O)=O | class 0
N/C(=N\c1nc2ccccc2s1)NC(=O)Nc1ccccc1Br | class 0
Cc1cc2nc3c4ccccc4n(CCCN(C)C)c3nc2cc1C | class 0
CCOC(=O)C1=C(N)N(c2ccccc2)C2=C(C(=O)CC(C)(C)C2)C1c1ccc([N+](=O)[O-])cc1 (stereo not drawn) | class 1
Cc1ncsc1-c1ccc(CNC(=O)[C@@H]2C[C@@H](O)CN2C(=O)[C@@H](NC(=O)C2(F)CC2)C(C)(C)C)c(OCCOCCOCCOCCOc2nc(Nc3cc(S(C)(=O)=O)ccc3N[C@@H](c3cccc4c3OC(F)(F)O4)c3ncccc3Cl)nc(N3CCNCC3)n2)c1 | class 1
NC(=S)Nc1cccc(NC(N)=S)c1 | class 1
COc1c(F)ccc(C(=O)Nc2ccc3nc(NC(=O)C4CCCN(S(=O)(=O)c5ccc(Cl)cc5)C4)sc3c2)c1F (stereo not drawn) | class 1
C/C(=N\N=C1/C(=O)Nc2ccccc21)c1ccc2c(c1)Nc1ccccc1S2 | class 0
CC1(C)CC[C@]2(C(=O)O)CC[C@]3(C)C(=CCC4[C@@]5(C)C[C@@H](O)[C@@H]6OC(c7ccccc7Br)OC[C@@]6(C)C5CC[C@]43C)C2C1 (stereo partly drawn) | class 0
COc1ccc(C2=NN(c3ccccc3)C(c3ccc(OCc4ccccc4)c(OC)c3)C2)cc1OC (stereo not drawn) | class 1
O=C1NC(=O)/C(=C/c2ccccc2OCc2cc3ccccc3nc2Cl)S1 | class 1
CC(=O)N1CCN(Cc2ccc3c(NNC(=O)c4cnccn4)nc4cc(F)ccc4n23)CC1 | class 0
CN(C)c1nc(NCCNS(=O)(=O)c2ccc(C(=O)/C=C/c3ccc(Cl)cc3)cc2)nc(Nc2ccc(F)cc2)n1 | class 0
CN1CCN(c2ccc3c(c2)nc(NNC(=O)c2cnccn2)c2cccn23)CC1 | class 0
COc1ccc(N2N=C(c3ccc4c(c3)OCO4)CC2c2cccc(NC(=O)CCNS(=O)(=O)c3ccc(Cl)cc3)c2)cc1 (stereo not drawn) | class 0
COc1cc2c(c(OC)c1OC)C(=O)CC(c1cccc(NC(=O)c3cccc([N+](=O)[O-])c3)c1)O2 (stereo not drawn) | class 0
COc1ccc(/C=C2\C(=O)Nc3ccc(Cl)cc32)cc1OCc1ccccn1 | class 1
COc1ccc(-c2nc3cc(C)ccc3n2CC(=O)N=Nc2c(O)[nH]c3ccc(Br)cc23)cc1 | class 0
NS(=O)(=O)c1ccc(N=Nc2c(O)n(CC(=O)Nc3ccccc3Cl)c3ccccc23)cc1 | class 0
COc1ccc(/C=C/c2nc3ccccc3c(=O)n2CC(=O)Nc2ccc(Cl)cc2)cc1 | class 1
CCOC(=O)c1ccc(Nc2nc(NN)nc(-c3ccc(OC)cc3)c2C#N)cc1 | class 1
O=[N+]([O-])c1ccc(/C=C/c2nc3ccccc3n3c(=S)[nH]nc23)cc1 | class 1
CC(=O)NNc1ccc2nnc(-c3ccccc3)n2n1 | class 1
CSc1ccc(C(=O)Nc2ccc3nnn(/C(C#N)=C/c4ccccn4)c3c2)cc1 | class 0
N#Cc1c(-c2cccc(Cl)c2Cl)cc(-c2c[nH]c3ccccc23)[nH]c1=O | class 1
COc1ccc2c(c1)c(/C=N/Nc1ccc3ccccc3n1)cn2C | class 0
O=C(O)Cn1c(O)c(/C=C2/C=c3cc4c(cc3=NC2=O)OCCO4)sc1=S | class 1
CCCCSc1nc(NCCc2c[nH]c3ccccc23)c(C#N)c(-c2ccc(F)cc2)n1 | class 0
C=C1CCC2C3(C)COC(c4ccccc4)OC3CCC2(C)C1CC(Sc1ccccc1)C1=CCOC1=O (stereo not drawn) | class 1
O=C(C1=CNC(=S)NC1c1ccc(O)cc1)c1cc2ccccc2oc1=O (stereo not drawn) | class 1
O=C(NN1C(=O)/C(=C/C=C/c2ccc([N+](=O)[O-])o2)SC1=S)c1cccc(O)c1 | class 0
COc1ccc(-c2ccc(SCC(=O)Nc3ccc(S(N)(=O)=O)cc3Br)nn2)cc1 | class 1
O=C(N1c2ccccc2Sc2ccccc21)n1ccc2cccnc21 | class 1
O=C(COc1ccc(NC(=O)Nc2ccc(Cl)c(Cl)c2)cc1)N=Nc1c(O)[nH]c2ccc(Br)cc12 | class 0
Cc1cc2c(cc1Cl)C(=O)/C(=C/c1ccc(F)cc1)O2 | class 1
CC1=C(C(=O)OC(C)C)C(c2cccc(O)c2)NC(=S)N1 (stereo not drawn) | class 1

* * *

# System: NCI-H460 lung
# methodSummary: NCI-60 one-dose screen, 48 h (100 = growth as untreated, 0 = no growth, -100 = all killed)
# recordedConditions: 10 µM unless noted
The panel holds about 83,000 compounds, 20% with a hit somewhere; the sample as a whole holds those more often.

compound | growth / %
NS(=O)(=O)c1ccc(NNC(=O)CCC(=O)c2ccccc2)cc1 | 107
COCOc1ccc2c(=O)c(C)c(C(=O)N[C@@H](Cc3ccccc3)C(O)C(=O)NCCc3ccc(OC)cc3)oc2c1 (some centres undefined) | 133
N#Cc1c(-c2cccc(Cl)c2Cl)cc(-c2ccc3ccccc3c2)[nH]c1=O | 13.4
COc1ccc(C2=NN(c3ccccc3)C(c3ccc(OC)c(OCc4ccccc4)c3)C2)cc1OC (centres undefined) | 105
CC12CC[C@@H]3[C@]4(C)COC(c5cn[nH]c5-c5ccc(Br)cc5)O[C@@H]4CC[C@@]3(C)[C@@H]1CC(C1=CCOC1=O)O2 (some centres undefined) | 35.4
CCCCCCCCc1ccc(C(=O)Nc2cccc(P(=O)(O)O)c2)cc1 | 107
CCCSc1nc(NCCc2c[nH]c3ccccc23)c(C#N)c(-c2ccc(OC)cc2)n1 | 19
CC(C)CSc1nc(NCCc2c[nH]c3ccccc23)c(C#N)c(-c2ccccc2)n1 | 12.5
Clc1cccc(Cl)c1/C=C/c1cc(/C=C/c2ccc(Br)cc2)c2ccccc2n1 | 99.5
CC(=O)/C=C/c1cccc2c1C(=O)NC(C)(c1cc3cc(Br)ccc3oc1=O)N2 (centres undefined) | 51.9
C(=C\c1cc(/C=C/c2ccccc2)c2ccccc2n1)/c1ccccc1 | 102
CC1(C)CC[C@]2(C(=O)O)CC[C@]3(C)C(=CCC4[C@@]5(C)C[C@@H](O)[C@@H]6OC(c7ccco7)OC[C@@]6(C)C5CC[C@]43C)C2C1 (some centres undefined) | 19.8
O=C(/C=C/c1cccc(OCc2ccccc2)c1)c1nc2ccccc2[nH]1 | 63
N#Cc1c(-c2ccc(Br)cc2)nc2n[nH]c(-c3ccc(Br)cc3)c2c1-c1ccc(F)cc1 | 106
CC(C)c1ccc2c(N)c(C(=O)Nc3ccc(C(F)(F)F)cn3)sc2n1 | 61.6
C=C1CC[C@@H]2[C@]3(C)COC(c4cn[nH]c4-c4ccc(C)cc4)O[C@@H]3CC[C@@]2(C)[C@@H]1C/C=C1/C(=O)OCC1O (some centres undefined) | 67
CCOC(=O)COc1c(OC)c(OC)cc2oc(-c3cccc(C(=O)Nc4ccc(Cl)cc4)c3)cc(=O)c12 | 83.5
CC12CC[C@@H]3[C@]4(C)COC(c5cn[nH]c5-c5ccc(Cl)cc5)O[C@@H]4CC[C@@]3(C)[C@@H]1CC(C1=CCOC1=O)O2 (some centres undefined) | 29.8
NS(=O)(=O)c1ccc(-n2cc(-c3cccc(NC(=O)c4cc(Cl)cc(Cl)c4)c3)nn2)cc1 | 43.7
O=c1[nH]n(C(=S)N/N=C/c2ccccc2Cl)c(=O)c2ccccc12 | 14.5
CN(C)CCCNC(=O)c1cc(NC(=O)c2cc(NC(=O)c3ccc(C#Cc4ccccc4)cc3)cn2C)cn1C | -28.9
CC1(C)CC[C@]2(C(=O)O)CC[C@]3(C)C(=CCC4[C@@]5(C)C[C@@H](O)[C@@H]6OC(c7ccc(F)cc7)OC[C@@]6(C)C5CC[C@]43C)C2C1 (some centres undefined) | 15.7
COc1ccc(-c2nc(SCC(C)C)nc(NCCc3c[nH]c4ccccc34)c2C#N)cc1 | 36.6
COc1cccc(/C=C/C(=O)c2ccc(OC)c(S(N)(=O)=O)c2)c1 | 16.2
CCCCSc1nc(Nc2ccc(C(C)=O)cc2)c(C#N)c(-c2ccc(OC)cc2)n1 | 27.6
Cn1cc(-c2cc(N)n3nc(-c4cn(C)c5ccccc45)cc3n2)c2cc(Br)ccc21 | -24.2
CN(C)c1nc(NCCNS(=O)(=O)c2ccc(C3=Nc4c(N)nc(N)nc4NC(c4ccc(C(F)(F)F)cc4)C3)cc2)nc(Nc2ccc(F)cc2)n1 (centres undefined) | -7.38
Cn1cc(-c2cc3nc(-c4cn(C)c5ncccc45)cc(N)n3n2)c2cc(Cl)ccc21 | -70
CC1CN(c2oc(-c3ccc([N+](=O)[O-])cc3)nc2C#N)CC(C)O1 (centres undefined) | 107
Cc1ccc2c(N)c(C(=O)Nc3ccc(OC(F)(F)F)cc3)sc2n1 | 77.8
CCCCSc1nc(NCCc2c[nH]c3ccccc23)c(C#N)c(-c2ccccc2)n1 | 14.5
COc1cc(C2CC(c3ccc(S(=O)(=O)NCCNc4nc(Nc5ccc(F)cc5)nc(N(C)C)n4)cc3)=Nc3c(N)nc(N)nc3N2)cc(OC)c1OC (centres undefined) | 84.5
Cc1ccccc1[C@H]1C(C(=O)c2ccc(Cl)cc2)C2(N[C@@H]1c1ccccc1)C(=O)Nc1ccc(Cl)cc12 (some centres undefined) | 1.55
C=C1CC[C@@H]2[C@]3(C)COC(c4ccco4)O[C@@H]3CC[C@@]2(C)[C@@H]1C/C=C1/C(=O)OCC1OC(C)=O (some centres undefined) | 37.6
